target system: Concanavalin-A (Canavalia ensiformis) (UniProt P02866)
Sequence (P02866 whole entry, looked up): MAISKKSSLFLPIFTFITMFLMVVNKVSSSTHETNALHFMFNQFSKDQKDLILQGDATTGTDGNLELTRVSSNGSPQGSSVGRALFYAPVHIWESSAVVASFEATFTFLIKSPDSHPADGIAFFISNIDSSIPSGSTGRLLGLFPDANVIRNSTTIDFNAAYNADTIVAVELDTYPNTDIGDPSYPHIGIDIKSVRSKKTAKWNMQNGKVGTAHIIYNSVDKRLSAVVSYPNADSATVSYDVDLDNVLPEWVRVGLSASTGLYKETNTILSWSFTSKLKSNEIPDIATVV
measurement description: ConA small-molecule binders, primary screen, artefact control for SMM control protein annotation, biochemical, small-molecule microarray, Alexa647 label, 635 nm (AID 1127);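 note: z combines 667 nm emission intensity with signal-to-noise across three replicate slides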
test conditions: ConA-A647 binding fluorescence, higher = more signal
Quick rule: composite z-score of at least 0.6 means 1 (yes), below that means 0 (no).

| compound | assigned category |
| --- | --- |
| CCOC(=O)C=C1C[C@@H](c2cccc([N+](=O)[O-])c2)O[C@@H](c2cccc([N+](=O)[O-])c2)O1 | 1 (yes) |
| CCN1C(=O)C2CC(=O)C3C(CN(S(=O)(=O)c4ccc(C)cc4)C3c3ccc(C)cc3)C2C1=O (stereo not given) | 1 (yes) |
| COC(=O)[C@H]1N=C(c2ccc(OCCCO)cc2)O[C@H]1c1ccccc1N=[N+]=[N-] | 1 (yes) |
| CC(C)N1C(=O)[C@@]2(Cc3ccccc31)c1ccccc1C(=O)N(Cc1ccccc1)[C@H]2c1ccc(CO)cc1 | 0 (no) |
| C=CCNC(=O)[C@H]1[C@@H]2C(=O)O[C@@H](c3ccccc3)[C@@H](c3ccccc3)N2[C@@H](c2ccc(O)cc2)[C@]12C(=O)Nc1ccc(C#CCC(C(=O)OC)C(=O)OC)cc12 | 0 (no) |
| C=C(CCCC)C(=O)CC[C@H](OC(=O)c1ccccc1-c1ccccc1C(=O)O)c1cccc(OCCO)c1 | 0 (no) |
| O=C1C2C=CC(C(O)c3ccccn3)N(Nc3ccc([N+](=O)[O-])cc3)C2C(=O)N1c1ccccc1 (stereo not given) | 1 (yes) |
| O=C1O[C@@H](c2ccccc2)[C@@H](c2ccccc2)N2[C@@H](c3ccccc3OCCO)[C@]3(C(=O)Nc4ccc(C#CC5(O)CCCCCC5)cc43)[C@@H](C(=O)N3CCCCCCC3)[C@H]12 | 1 (yes) |
| COCCCNC(=O)[C@@]1(Cc2ccccc2I)c2ccccc2C(=O)N(C2CCCCC2)[C@H]1c1ccc(CO)cc1 | 1 (yes) |
| CCCCC(=C=CC[C@@H](O)c1ccccc1OCCO)C[C@@H](O)c1ccccn1 | 0 (no) |
| C=C(CCCC)/C(=C/C[C@@H](OC(C)=O)c1cccc(OCCO)c1)c1cc(C(=O)OC)ccc1OC | 0 (no) |
| O=C(CS)NCCCCCCNC(=O)[C@H]1C[C@H]2C(=O)NCC(=O)N2[C@H]1c1cccc(OCCO)c1 | 1 (yes) |
| CC(C)C[C@@H]1NC(=O)[C@@H]2C[C@H](C(=O)NCCCCCCNC(=O)CS)[C@H](c3ccc(O)cc3)N2C1=O | 1 (yes) |
| C=C(C(=O)CC[C@@H](OC(=O)c1ccccc1-c1ccccc1C(=O)O)c1ccc(OCCO)cc1)C(C)C | 1 (yes) |
